These measurements were taken from patent US7074789B2.

- tgt: c-Met (Homo sapiens)
- Construct: Kinases are expressed as either kinase domains or full length constructs; made in house
- Sequence (P08581 25-1390): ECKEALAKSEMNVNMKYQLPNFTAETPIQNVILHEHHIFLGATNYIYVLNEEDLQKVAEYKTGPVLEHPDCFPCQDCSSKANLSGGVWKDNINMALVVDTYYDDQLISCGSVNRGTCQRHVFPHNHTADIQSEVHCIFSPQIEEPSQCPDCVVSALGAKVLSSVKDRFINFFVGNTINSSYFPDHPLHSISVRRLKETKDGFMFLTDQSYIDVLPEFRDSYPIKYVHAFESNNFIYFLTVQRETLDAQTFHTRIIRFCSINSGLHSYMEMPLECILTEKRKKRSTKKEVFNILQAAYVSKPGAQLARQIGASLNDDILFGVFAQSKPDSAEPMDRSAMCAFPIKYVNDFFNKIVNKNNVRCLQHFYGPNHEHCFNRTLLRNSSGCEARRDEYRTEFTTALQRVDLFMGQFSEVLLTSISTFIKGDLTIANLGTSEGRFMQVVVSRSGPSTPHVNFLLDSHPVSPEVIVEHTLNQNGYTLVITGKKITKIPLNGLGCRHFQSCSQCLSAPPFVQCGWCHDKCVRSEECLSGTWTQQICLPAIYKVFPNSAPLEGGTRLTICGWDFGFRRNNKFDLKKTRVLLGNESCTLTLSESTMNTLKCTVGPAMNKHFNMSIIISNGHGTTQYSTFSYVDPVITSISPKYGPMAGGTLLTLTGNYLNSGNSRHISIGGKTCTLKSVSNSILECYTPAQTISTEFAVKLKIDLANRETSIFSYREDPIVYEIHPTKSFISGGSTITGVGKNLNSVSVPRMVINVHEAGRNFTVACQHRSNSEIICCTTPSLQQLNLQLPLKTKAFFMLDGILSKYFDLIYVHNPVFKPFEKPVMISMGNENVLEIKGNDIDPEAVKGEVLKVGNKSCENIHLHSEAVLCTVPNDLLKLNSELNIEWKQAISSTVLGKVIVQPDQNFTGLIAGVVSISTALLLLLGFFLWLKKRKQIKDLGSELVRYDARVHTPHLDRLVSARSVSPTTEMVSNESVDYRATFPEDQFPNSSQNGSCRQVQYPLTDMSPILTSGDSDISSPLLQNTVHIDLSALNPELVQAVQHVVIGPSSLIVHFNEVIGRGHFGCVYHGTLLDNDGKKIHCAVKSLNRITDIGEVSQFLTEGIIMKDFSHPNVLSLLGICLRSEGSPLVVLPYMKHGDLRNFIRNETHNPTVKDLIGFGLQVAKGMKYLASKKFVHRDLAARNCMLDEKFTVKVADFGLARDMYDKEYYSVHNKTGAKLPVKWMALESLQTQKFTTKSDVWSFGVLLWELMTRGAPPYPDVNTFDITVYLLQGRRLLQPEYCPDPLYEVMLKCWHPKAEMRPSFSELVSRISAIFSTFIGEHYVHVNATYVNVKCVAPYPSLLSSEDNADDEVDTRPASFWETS
- protocol-summary: Kinase inhibition assay (33P transfer), c-Met
- Assay type: biochemical
- study-conditions: Table 2, kinase inhibition class; read-out: Met-1
readout-name: IC50

The following molecules have reported results that may help.
| molecule | IC50 |
| --- | --- |
| O=c1[nH]c2ccccc2n1-c1ncnc(Nc2cccc(OC(F)(F)F)c2)n1 [Compound 461] | > 11.6 µM |
| COc1cc(Nc2ncnc(-n3c(C)nc4ccccc43)n2)cc(OC)c1OC [Compound 691] | 1.02 to 6.12 µM |
| COc1cc(Nc2ncnc(-n3c(OCc4ccccn4)nc4ccccc43)n2)cc(OC)c1OC [Compound 690] | > 9.27 µM |
| COc1cc(Nc2ncnc(-n3c(NCc4ccccn4)nc4ccccc43)n2)cc(OCCN2CCOCC2)c1OC [Compound 507] | > 7.71 µM |
| COc1cc(Nc2ncnc(-n3c(NCc4ccc(O)cc4)nc4ccccc43)n2)cc(OC)c1OC [Compound 561] | > 9.01 µM |

Kindly state the measured IC50 obtained for O=c1[nH]c2ccccc2n1-c1ncnc(Nc2ccc(NS(=O)(=O)c3ccc([N+](=O)[O-])cc3)cc2)n1 [Compound 422] with c-Met (Homo sapiens).
> 8.92 µM

Now try COc1cc(Nc2ncnc(-c3ccc(C)cc3)n2)cc(OC)c1OC [Compound 221] .
> 12.8 µM

---

- tgt: Kdr (Homo sapiens)
- Construct: Kinases are expressed as either kinase domains or full length constructs; made in house
- Sequence (P35968 20-1356, species assumed): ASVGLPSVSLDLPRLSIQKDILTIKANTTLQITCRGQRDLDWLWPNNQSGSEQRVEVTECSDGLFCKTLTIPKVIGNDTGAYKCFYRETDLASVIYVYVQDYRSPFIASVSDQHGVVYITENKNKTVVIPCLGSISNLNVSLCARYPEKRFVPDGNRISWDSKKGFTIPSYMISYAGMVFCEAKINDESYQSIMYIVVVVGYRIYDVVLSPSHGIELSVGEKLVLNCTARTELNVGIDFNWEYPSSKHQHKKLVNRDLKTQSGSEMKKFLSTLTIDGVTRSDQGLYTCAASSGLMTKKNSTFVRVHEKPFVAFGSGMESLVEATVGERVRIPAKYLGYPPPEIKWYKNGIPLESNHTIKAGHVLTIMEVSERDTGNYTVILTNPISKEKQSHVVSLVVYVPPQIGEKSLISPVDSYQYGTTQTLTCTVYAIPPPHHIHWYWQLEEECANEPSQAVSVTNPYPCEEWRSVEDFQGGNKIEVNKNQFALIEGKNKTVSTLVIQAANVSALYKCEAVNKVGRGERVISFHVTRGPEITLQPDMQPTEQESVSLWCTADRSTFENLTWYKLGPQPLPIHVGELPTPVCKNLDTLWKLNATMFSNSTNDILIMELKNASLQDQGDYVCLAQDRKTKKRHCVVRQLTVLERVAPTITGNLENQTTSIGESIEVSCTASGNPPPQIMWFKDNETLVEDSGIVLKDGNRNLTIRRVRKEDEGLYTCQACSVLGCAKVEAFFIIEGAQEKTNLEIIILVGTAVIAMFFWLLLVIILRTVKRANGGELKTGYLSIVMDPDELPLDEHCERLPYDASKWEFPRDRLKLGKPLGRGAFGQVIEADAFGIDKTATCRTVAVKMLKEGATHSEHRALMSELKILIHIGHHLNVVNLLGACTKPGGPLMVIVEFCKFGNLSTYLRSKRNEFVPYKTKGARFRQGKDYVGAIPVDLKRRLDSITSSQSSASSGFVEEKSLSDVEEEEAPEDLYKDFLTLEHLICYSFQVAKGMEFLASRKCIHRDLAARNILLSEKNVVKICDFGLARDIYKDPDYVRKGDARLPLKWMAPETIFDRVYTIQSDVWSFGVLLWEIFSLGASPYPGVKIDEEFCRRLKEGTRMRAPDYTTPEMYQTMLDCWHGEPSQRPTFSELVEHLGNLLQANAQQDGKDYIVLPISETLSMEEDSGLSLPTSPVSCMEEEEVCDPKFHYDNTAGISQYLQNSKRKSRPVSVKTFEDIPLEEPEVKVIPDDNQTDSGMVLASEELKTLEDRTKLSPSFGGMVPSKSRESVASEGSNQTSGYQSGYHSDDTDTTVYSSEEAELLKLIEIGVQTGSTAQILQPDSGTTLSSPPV
- protocol-summary: Kinase inhibition assay (33P transfer), Kdr
- Assay type: biochemical
- study-conditions: Table 3; read-out: KDR-1
pIC50: −log10 of the molar value.
readout-name: pIC50

Example compounds with recorded pIC50:
| compound | pIC50 |
| --- | --- |
| NC(=O)c1ccc(Nc2ncnc(Nc3cc(-c4ccco4)n[nH]3)n2)cc1 | > 5.96 |
| COc1cc(Nc2ncnc(N)n2)cc(OC)c1OC [Compound 1024] | < 4.79 |
| COc1cc(Nc2ncnc(Nc3cccc4cccnc34)n2)cc(OC)c1OC | > 6.00 |

GET /values?readout=pIC50&system=Kdr (Homo sapiens)&item= `COc1cc(Nc2ncnc(N3CCc4ccccc43)n2)cc(OC)c1OC`
> 5.98

Now the compound `COc1cc(Nc2ncnc(Nc3ccc(NC(=O)OC(C)(C)C)cc3)n2)cc(OC)c1OC`
5.29 to 6.07

---

IC50 values by entry
- tgt: Zap-70 (Homo sapiens, UniProt P43403)
- Construct: Kinases are expressed as either kinase domains or full length constructs; made in house
- Sequence (P43403 whole entry, species assumed, the tested form may be a part): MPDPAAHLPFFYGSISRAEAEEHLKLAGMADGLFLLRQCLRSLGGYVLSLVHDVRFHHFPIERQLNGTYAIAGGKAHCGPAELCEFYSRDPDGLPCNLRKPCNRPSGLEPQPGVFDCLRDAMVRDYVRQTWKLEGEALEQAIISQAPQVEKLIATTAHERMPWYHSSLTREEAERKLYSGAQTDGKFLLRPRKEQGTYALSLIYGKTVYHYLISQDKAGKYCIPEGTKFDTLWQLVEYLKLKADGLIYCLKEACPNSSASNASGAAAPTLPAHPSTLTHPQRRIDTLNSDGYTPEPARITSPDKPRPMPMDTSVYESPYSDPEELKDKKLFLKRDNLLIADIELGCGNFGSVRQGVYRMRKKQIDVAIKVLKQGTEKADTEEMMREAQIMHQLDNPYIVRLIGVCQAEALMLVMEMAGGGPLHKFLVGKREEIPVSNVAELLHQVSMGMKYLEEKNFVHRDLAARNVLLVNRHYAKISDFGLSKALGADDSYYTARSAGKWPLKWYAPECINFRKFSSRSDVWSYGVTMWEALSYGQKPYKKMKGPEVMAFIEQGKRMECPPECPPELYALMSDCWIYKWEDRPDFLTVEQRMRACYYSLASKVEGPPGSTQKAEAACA
- protocol-summary: Kinase inhibition assay (33P transfer), Zap-70
- Format: biochemical
- study-conditions: Table 3, class symbols; read-out: Zap-1

Recorded results for 10 molecules are shown here.
| molecule | IC50 |
| --- | --- |
| COc1ccc2[nH]cc(CCNc3ncnc(Nc4ccc(OC)c(OC)c4)n3)c2c1 [Compound 855] | > 10.7 µM |
| COc1ccc(N(C)c2ncnc(Nc3ccc(OC)c(OC)c3)n2)cc1 [Compound 863] | > 12.2 µM |
| CN(c1cccc(Cl)c1)c1ncnc(Nc2ccc3c(cnn3C)c2)n1 [Compound 674] | > 12.3 µM |
| COC(=O)c1ccc(-c2cc(Nc3ncnc(Nc4cc(Cl)cc(Cl)c4)n3)[nH]n2)cc1 [Compound 811] | > 9.86 µM |
| NC(=O)Cc1cccc(Nc2ncnc(-n3c(NCc4ccccc4)nc4ccccc43)n2)c1 [Compound 967] | > 9.99 µM |
| COC(=O)c1ccc(-c2cc(Nc3ncnc(NCc4cccnc4)n3)[nH]n2)cc1 [Compound 809] | > 11.2 µM |
| CN(c1cccc(Cl)c1)c1ncnc(Nc2cccc(OC(F)(F)F)c2)n1 [Compound 875] | > 11.4 µM |
| COc1ccc(Nc2ncnc(Nc3ccc4c(cnn4Cc4ccccc4)c3)n2)cc1 [Compound 905] | > 10.6 µM |
| COc1ccc(Nc2ncnc(N(C)C3CCCCC3)n2)cc1OC [Compound 796] | > 13.1 µM |
| COc1ccc(Nc2ncnc(Nc3ccc4c(c3)C(=O)N(C)C4=O)n2)cc1OC [Compound 856] | > 11.1 µM |

Item COc1cc(Nc2ncnc(N(C)c3cccc(Cl)c3)n2)cc2ccccc12 [Compound 876] with Zap-70 (Homo sapiens, UniProt P43403) - IC50?
> 11.5 µM

Next record, please: COC(=O)c1ccc(-c2cc(Nc3ncnc(NC4=NC(=O)CS4)n3)[nH]n2)cc1 [Compound 881]
> 11 µM

Could you do the same for c1ccc(Cn2ncc3cc(Nc4ncnc(Nc5ccc6ncsc6c5)n4)ccc32)cc1 [Compound 900] , please?
5.33 to 7.77 µM

---

- tgt: c-Met (Homo sapiens)
- Construct: Kinases are expressed as either kinase domains or full length constructs; made in house
- protocol-summary: Kinase inhibition assay (33P transfer), c-Met
- Type: biochemical
- study-conditions: Table 2, kinase inhibition class; read-out: Met-1
Listed here: items and their measured IC50.

| compound | IC50 |
| --- | --- |
| COc1cc(Nc2ncnc(-c3ccc(NCCCO)nc3)n2)cc(OC)c1OC [Compound 497] | > 10.9 µM |
| NC(=O)c1ccccc1Nc1ncnc(-n2c(N)nc3ccccc32)n1 [Compound 473] | 10.1 to 13 µM |
| COc1cc(Nc2ncnc(-c3cccc4ccccc34)n2)cc(OC)c1OC [Compound 611] | > 11.6 µM |
| COc1cc(Nc2ncnc(-n3ncc4ccccc43)n2)cc(OC)c1OC [Compound 240] | > 11.9 µM |

Turning now to a further compound:
Sample Cc1ccc(Nc2ncnc(-n3cccc3)n2)cc1Cl [Compound 276] — what was its IC50?
> 15.7 µM

---

- tgt: AKT (Homo sapiens)
- Construct: Kinases are expressed as either kinase domains or full length constructs; made in house
- Sequence (Q9Y243 whole entry, the tested form may be a part): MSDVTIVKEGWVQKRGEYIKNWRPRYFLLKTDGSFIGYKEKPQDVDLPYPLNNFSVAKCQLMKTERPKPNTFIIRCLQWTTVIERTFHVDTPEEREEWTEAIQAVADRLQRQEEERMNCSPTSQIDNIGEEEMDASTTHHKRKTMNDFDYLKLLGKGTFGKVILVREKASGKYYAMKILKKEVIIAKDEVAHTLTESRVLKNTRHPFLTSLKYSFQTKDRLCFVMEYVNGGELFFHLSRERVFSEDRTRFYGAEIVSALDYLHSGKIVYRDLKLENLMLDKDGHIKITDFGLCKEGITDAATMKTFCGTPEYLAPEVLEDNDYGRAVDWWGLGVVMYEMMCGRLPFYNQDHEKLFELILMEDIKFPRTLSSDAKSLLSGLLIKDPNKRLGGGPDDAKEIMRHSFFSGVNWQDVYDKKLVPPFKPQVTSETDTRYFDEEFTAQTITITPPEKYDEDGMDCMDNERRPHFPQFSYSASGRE
- protocol-summary: Kinase inhibition assay (33P transfer), AKT
- Format: biochemical
- study-conditions: Table 2, kinase inhibition class; read-out: AKT3-1
pIC50: −log10 of the molar value.
Let's look at some compounds and their measured pIC50.

| compound | tgt | reported-result |
| --- | --- | --- |
| CNS(=O)(=O)Cc1ccc(Nc2ncnc(Nc3ccc4c(cnn4Cc4ccccc4)c3)n2)cc1 [Compound 736] | AKT (Homo sapiens) | 5.32 to 6.10 |
| COC(=O)c1cccc(Nc2ncnc(Nc3cc(-c4ccco4)n[nH]3)n2)c1 [Compound 344] | AKT (Homo sapiens) | < 4.92 |
| CN(C)CCNc1ncnc(Nc2ccc3c(cnn3Cc3ccccc3)c2)n1 [Compound 733] | AKT (Homo sapiens) | < 4.94 |
| COc1ccc(CNc2nc3ccccc3n2-c2ncnc(Nc3cccc(CC(=O)O)c3)n2)cc1 [Compound 534] | AKT (Homo sapiens) | < 5.03 |

I would be grateful if you could share the reported pIC50 for COc1cccc(Nc2ncnc(-c3ccccc3)n2)c1 [Compound 13] .
< 4.79

Lookup COc1cc(Nc2ncnc(-n3c(NCc4nc5ccccc5[nH]4)nc4ccccc43)n2)cc(OC)c1OC [Compound 954]
< 5.07

Next compound: COc1cc(Nc2ncnc(Nc3cccc4ccccc34)n2)cc(OC)c1OCCN1CCOCC1 [Compound 1041]
< 5.05

How about COc1cc(Nc2ncnc(Nc3ccc(C(C)C)cc3)n2)cc(OC)c1OC [Compound 66] ?
< 4.94

---

Recorded pIC50 for the following molecules
- tgt: Kdr (Homo sapiens)
- Construct: Kinases are expressed as either kinase domains or full length constructs; made in house
- protocol-summary: Kinase inhibition assay (33P transfer), Kdr
- Type: biochemical
- study-conditions: Table 3; read-out: KDR-1
pIC50: −log10 of the molar value.

Worked cases, pIC50 given:
| molecule | readout-name | reported-result |
| --- | --- | --- |
| COc1cc2ccn(-c3ncnc(Nc4cc(OC)c(OC)c(OC)c4)n3)c2cc1OC | pIC50 | 5.26 to 6.04 |
| c1csc(-c2ncnc(Nc3ccncc3)n2)c1 | pIC50 | < 4.75 |

Find the measured pIC50: item `COc1cc(Nc2ncnc(Nc3cccc(Br)c3)n2)cc(OC)c1OC` , target or system Kdr (Homo sapiens).
5.26 to 6.03

Same lookup for `COc1cc(Nc2ncnc(-n3c(Nc4cc(OC)c(OC)c(OC)c4)nc4ccccc43)n2)cc(OC)c1OC` , please.
5.37 to 6.15

Quick one: `OCc1ccc(Nc2ncnc(Nc3cc(-c4ccco4)n[nH]3)n2)cc1`
> 5.94

Param item: `COc1cc(Nc2ncnc(Nc3ccc(C)cc3F)n2)cc(OC)c1OC`
> 5.98

Do the same for COc1cc(Nc2ncnc(N3c4ccc(F)cc4CCC3C)n2)cc(OC)c1OC (centres unmarked) please
> 6.03

Another: `COc1cc(Nc2ncnc(-n3c(Nc4ccc5[nH]ncc5c4)nc4ccccc43)n2)cc(OC)c1OC`
> 6.11
